# TEST NAME: gradient 5% acetonitrile 3 min, to 50% in 2 min, to 85% in 15 min, held 3 min, 100 µL/min
# MEASUREMENT SETUP: column: Zorbax Extend-C18 2.1 x 50 mm; eluents: water / acetonitrile, 0.1% formic acid
EXPERIMENTAL ENDPOINT: RP-LC retention time (s)

- COMPOUND: "CCOc1ccc(N2C(=O)N[C@@H]3C[C@]2(C)Oc2ccc(OC)cc23)cc1"
  VALUE MEASURED: 864
- COMPOUND: "CS(=O)(=O)N1CCC(C(=O)Nc2cccc(C(F)(F)F)c2)Oc2ccc(Cl)cc21 (centres undefined)"
  VALUE MEASURED: 1060
- COMPOUND: "COc1cccc(-n2nnc(-c3nc(-c4ccccc4OC)cs3)c2N)c1"
  VALUE MEASURED: 1120
- COMPOUND: "CCOC(=O)c1c(C)oc2nc(C)nc(NCCN(C)Cc3ccccc3)c12"
  VALUE MEASURED: 701
- COMPOUND: "Cc1ccc(NC(=O)C2CCCN(c3nnc(C)c4c(C)n(-c5ccccc5)nc34)C2)cc1C (centres undefined)"
  VALUE MEASURED: 820
- COMPOUND: "COc1ccccc1-c1nc(-c2ccc3nnn(C)c3c2)no1"
  VALUE MEASURED: 923
- COMPOUND: "Cc1cc(OCC(=O)Nc2cc(F)ccc2F)nc(N2CCN(c3ccccc3)CC2)n1"
  VALUE MEASURED: 900
- COMPOUND: "CN(Cc1nc2ccccc2[nH]1)C(=O)c1ccco1"
  VALUE MEASURED: 537
- COMPOUND: "Cc1ccc(S(=O)(=O)N2C[C@@H](F)C[C@H]2C(=O)N2CCc3ccccc3C2)c(C)c1"
  VALUE MEASURED: 992

====

Collected RP-LC retention time values appear next to each entry.
# TEST NAME: gradient 5% acetonitrile 3 min, to 50% in 2 min, to 85% in 15 min, held 3 min, 100 µL/min
# MEASUREMENT SETUP: column: Zorbax Extend-C18 2.1 x 50 mm; eluents: water / acetonitrile, 0.1% formic acid
EXPERIMENTAL ENDPOINT: RP-LC retention time (s)

- MOLECULE: "O=C(NCc1cccnc1)C1c2ccccc2C(=O)N1Cc1ccccc1 (centres undefined)"
  RESULT UNITS: "s"
  VALUE MEASURED: 604
- MOLECULE: "O=C(NCCc1ccccc1)N1CCC(OC2CCN(Cc3ccccc3)CC2)CC1"
  RESULT UNITS: "s"
  VALUE MEASURED: 652
- MOLECULE: "CCc1ccc(NC(=O)Cn2cnc3nc(N4CCCC(C(=O)NC(C)C)C4)sc3c2=O)cc1 (centres undefined)"
  RESULT UNITS: "s"
  VALUE MEASURED: 710
- MOLECULE: "O=C(CN1CC=C(c2cnn(-c3ccccc3)c2)CC1)N1CCCc2ccccc21"
  RESULT UNITS: "s"
  VALUE MEASURED: 726
- MOLECULE: "CN(c1ccccc1)c1nc(=O)n(CC(=O)Nc2ccc3c(c2)OCO3)c2ccccc12"
  RESULT UNITS: "s"
  VALUE MEASURED: 800
- MOLECULE: "CCC(C)(C)NC(=O)c1cc2c(s1)N(CCOC)CCCC2"
  RESULT UNITS: "s"
  VALUE MEASURED: 1020
- MOLECULE: "Cc1cc(=O)n(CC(=O)Nc2cccc(Cl)c2)c(N(C)Cc2ccccc2)n1"
  RESULT UNITS: "s"
  VALUE MEASURED: 797
- MOLECULE: "CCc1onc(C)c1C1CCCN1C(=O)c1ccc(OC)c(OC)c1 (centres undefined)"
  RESULT UNITS: "s"
  VALUE MEASURED: 714
- MOLECULE: "CN1C(=O)CCC2(CNC(=O)c3cnccn3)CCC=C12 (centres undefined)"
  RESULT UNITS: "s"
  VALUE MEASURED: 644
- MOLECULE: "Cc1cc(CC(=O)N2CC(F)(F)C[C@H]2c2nc(C)no2)on1"
  RESULT UNITS: "s"
  VALUE MEASURED: 732
- MOLECULE: "COc1ccc(S(=O)(=O)N2CCC(c3nc(C(=O)N4CCCC4)c(C)o3)CC2)cc1"
  RESULT UNITS: "s"
  VALUE MEASURED: 871
- MOLECULE: "O=C(CC1CCN(S(=O)(=O)c2ccc(Cl)s2)CC1)N1CCN(c2ncccn2)CC1"
  RESULT UNITS: "s"
  VALUE MEASURED: 872
- MOLECULE: "CN(C)S(=O)(=O)c1ccc(Cl)c(-c2nnc(-c3ccccc3)o2)c1"
  RESULT UNITS: "s"
  VALUE MEASURED: 983
- MOLECULE: "CC(Cc1ccco1)NC(=O)C1CCN(S(C)(=O)=O)CC1 (centres undefined)"
  RESULT UNITS: "s"
  VALUE MEASURED: 632
- MOLECULE: "COc1ccc(Cl)cc1N1CC(c2nc(-c3ccc(C)cc3)no2)CC1=O (centres undefined)"
  RESULT UNITS: "s"
  VALUE MEASURED: 1050
- MOLECULE: "COCC(=O)N(CC(=O)N1CCc2sccc2C1COc1ccc(Cl)c(C)c1)C(C)C (centres undefined)"
  RESULT UNITS: "s"
  VALUE MEASURED: 967
- MOLECULE: "COc1ccc(CCNC(=O)C2CCN(S(C)(=O)=O)c3cc(Cl)ccc3O2)cc1 (centres undefined)"
  RESULT UNITS: "s"
  VALUE MEASURED: 889
- MOLECULE: "CCOc1ccc(-c2nc(Cn3ccn4nc(-c5ccc(OC)cc5)cc4c3=O)c(C)o2)cc1OC"
  RESULT UNITS: "s"
  VALUE MEASURED: 1030
- MOLECULE: "CCN(C(=O)CC(=O)OC)c1nc(-c2ccc(C)cc2)cs1"
  RESULT UNITS: "s"
  VALUE MEASURED: 1070
- MOLECULE: "CCc1ccccc1N(C)S(=O)(=O)c1ccccc1-c1nc(-c2ccccc2)no1"
  RESULT UNITS: "s"
  VALUE MEASURED: 1270
- MOLECULE: "Cc1ccc(CNS(=O)(=O)c2ccc(-c3nnc(C)o3)o2)o1"
  RESULT UNITS: "s"
  VALUE MEASURED: 737
- MOLECULE: "CCc1ccc(-c2noc(CN3C(=O)COc4cc(C)ccc43)n2)cc1"
  RESULT UNITS: "s"
  VALUE MEASURED: 1170
- MOLECULE: "CCOc1cc(-c2ccccc2)nc2ccc(NS(=O)(=O)c3ccc(NC(C)=O)cc3)cc12"
  RESULT UNITS: "s"
  VALUE MEASURED: 669
- MOLECULE: "O=C(NCc1ccc2c(c1)OCO2)c1c(O)c2cccnc2n(-c2ccccc2)c1=O"
  RESULT UNITS: "s"
  VALUE MEASURED: 1120
- MOLECULE: "O=C1CC(c2nc(-c3cccc(Cl)c3)no2)CN1c1ccc(F)cc1 (centres undefined)"
  RESULT UNITS: "s"
  VALUE MEASURED: 1030
- MOLECULE: "Cc1ccc(S(=O)(=O)N2CCCC(Cn3c(C4CC4)nc4cccnc43)C2)cc1 (centres undefined)"
  RESULT UNITS: "s"
  VALUE MEASURED: 790
- MOLECULE: "Cc1ccc(OCc2nn3c(-c4ccoc4C)nnc3s2)cc1"
  RESULT UNITS: "s"
  VALUE MEASURED: 1010
- MOLECULE: "CCOC(=O)c1ccc(NS(=O)(=O)c2cc3n(c2)CCN(C)C3=O)cc1"
  RESULT UNITS: "s"
  VALUE MEASURED: 702
- MOLECULE: "Fc1cccc(F)c1C1SCc2nc3ccccc3n21 (centres undefined)"
  RESULT UNITS: "s"
  VALUE MEASURED: 797
- MOLECULE: "CN(Cc1ccccc1)C(=O)c1cccc(NC(=O)[C@H]2[C@@H]3C[C@@H]4[C@H]2C(=O)O[C@@H]4C3)c1"
  RESULT UNITS: "s"
  VALUE MEASURED: 766
- MOLECULE: "COc1ccc(OCc2noc(CNC(=O)c3cccnc3)n2)cc1"
  RESULT UNITS: "s"
  VALUE MEASURED: 749
- MOLECULE: "COc1ccc(C(=O)NC2CCN(c3ccc(=O)[nH]n3)C2)c(OC)n1 (centres undefined)"
  RESULT UNITS: "s"
  VALUE MEASURED: 660
- MOLECULE: "CCn1c(=O)c(N2CCN(C(=O)Nc3ccc(Br)cc3)CC2)nc2ccccc21"
  RESULT UNITS: "s"
  VALUE MEASURED: 1030
- MOLECULE: "Cc1sc(-c2nnc(C(=O)N3CCCC3)o2)cc1S(=O)(=O)NCc1cccnc1"
  RESULT UNITS: "s"
  VALUE MEASURED: 1310
- MOLECULE: "COc1nc2ccccc2nc1N1CCCC(C(=O)Nc2ccc(F)cc2F)C1 (centres undefined)"
  RESULT UNITS: "s"
  VALUE MEASURED: 1170
- MOLECULE: "CC1CNc2c(cccc2S(=O)(=O)N[C@@H](CCCN=C(N)N)C(=O)N2CC[C@@H](C)C[C@@H]2C(=O)O)C1 (some centres undefined)"
  RESULT UNITS: "s"
  VALUE MEASURED: 822
- MOLECULE: "CC(C)CNC(=O)Cn1c(C(C)C)nc2ccccc21"
  RESULT UNITS: "s"
  VALUE MEASURED: 601
- MOLECULE: "CCCC1c2nccn2CCCN1C(=O)c1conc1C (centres undefined)"
  RESULT UNITS: "s"
  VALUE MEASURED: 568
- MOLECULE: "CC(C)(C)Sc1ccc2nn(CC(=O)Nc3ccccc3C(F)(F)F)c(=O)n2n1"
  RESULT UNITS: "s"
  VALUE MEASURED: 816
